- Test system: human TLR7 (Homo sapiens, UniProt Q9NYK1)
- Sequence (Q9NYK1 27-1049): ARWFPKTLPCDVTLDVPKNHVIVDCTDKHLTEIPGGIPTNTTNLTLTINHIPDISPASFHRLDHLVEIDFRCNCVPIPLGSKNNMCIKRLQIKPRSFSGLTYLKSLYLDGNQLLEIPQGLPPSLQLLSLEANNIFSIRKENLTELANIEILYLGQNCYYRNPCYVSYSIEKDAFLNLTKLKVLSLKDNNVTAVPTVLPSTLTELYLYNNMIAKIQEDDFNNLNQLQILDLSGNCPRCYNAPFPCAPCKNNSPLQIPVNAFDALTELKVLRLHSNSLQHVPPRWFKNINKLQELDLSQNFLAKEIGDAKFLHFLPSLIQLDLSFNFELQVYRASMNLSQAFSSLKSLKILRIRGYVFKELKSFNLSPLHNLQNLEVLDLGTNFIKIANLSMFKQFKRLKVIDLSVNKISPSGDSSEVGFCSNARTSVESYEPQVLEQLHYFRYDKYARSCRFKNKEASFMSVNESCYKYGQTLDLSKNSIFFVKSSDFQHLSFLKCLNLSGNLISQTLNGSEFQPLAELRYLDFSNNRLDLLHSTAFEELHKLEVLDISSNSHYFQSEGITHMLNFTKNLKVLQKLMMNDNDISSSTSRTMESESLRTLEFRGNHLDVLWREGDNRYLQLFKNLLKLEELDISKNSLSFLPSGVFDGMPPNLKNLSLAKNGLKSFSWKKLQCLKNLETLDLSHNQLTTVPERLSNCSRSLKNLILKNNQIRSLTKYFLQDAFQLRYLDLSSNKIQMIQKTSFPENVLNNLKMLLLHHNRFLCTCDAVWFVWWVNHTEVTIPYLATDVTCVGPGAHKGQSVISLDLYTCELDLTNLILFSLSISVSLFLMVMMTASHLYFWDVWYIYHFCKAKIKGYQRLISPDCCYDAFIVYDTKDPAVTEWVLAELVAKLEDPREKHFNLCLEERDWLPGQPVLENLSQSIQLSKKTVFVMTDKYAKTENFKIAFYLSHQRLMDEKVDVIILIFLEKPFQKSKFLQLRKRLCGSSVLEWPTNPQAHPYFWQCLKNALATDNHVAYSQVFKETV
- Test name: TLR7 inhibition reporter assay (HEK-Blue SEAP)
- Condition set: HEK-Blue cells overexpressing human TLR7, stimulated with gardiquimod 7.5 μM, 22 hour incubation
pIC50: −log10 of the molar value.

# Compound, Test system, pIC50
data = [
    ("CNC1CCC(c2n[nH]c3cc(-c4cc(C)c5ncnn5c4)c(C)cc23)CC1 (centres unmarked)", "human TLR7 (Homo sapiens, UniProt Q9NYK1)", 7.33),
    ("Cc1cc(-c2cc(C)c3ncnn3c2)cc2[nH]nc(OC3CCC(NC4CC4)CC3)c12 (single isomer, unassigned) [Example 190]", "human TLR7 (Homo sapiens, UniProt Q9NYK1)", 8.80),
    ("Cc1cc2c(OC3CCC(N(C)C)CC3)n[nH]c2cc1-c1cc(C)c2ncnn2c1 (single isomer, unassigned) [Example 182]", "human TLR7 (Homo sapiens, UniProt Q9NYK1)", 7.59),
    ("Cc1cc(-c2cc3[nH]nc(C4CCN(CC(C)(C)O)CC4)c3cc2C(C)C)cn2ncnc12", "human TLR7 (Homo sapiens, UniProt Q9NYK1)", 8.82),
    ("Cc1cc2c(CC3CCNCC3)n[nH]c2cc1-c1cc(C)c2ncnn2c1", "human TLR7 (Homo sapiens, UniProt Q9NYK1)", 7.16),
    ("Cc1cc2c(C3CCCN(C(=O)CN(C)C)C3)n[nH]c2cc1-c1cc(C)c2ncnn2c1 (centres unmarked) [Example 40]", "human TLR7 (Homo sapiens, UniProt Q9NYK1)", 7.63),
    ("COc1cc(-c2cc(C)c3c(OC4CCC(N(C)C)CC4)n[nH]c3c2)cn2ncnc12 (single isomer, unassigned) [Example 184]", "human TLR7 (Homo sapiens, UniProt Q9NYK1)", 8.74),
    ("Cc1cc(-c2cc(C)c3ncnn3c2)cc2[nH]nc(C3CCN(CC(C)(C)O)CC3)c12", "human TLR7 (Homo sapiens, UniProt Q9NYK1)", 7.95),
    ("Cc1cc(-c2cc(C)c3ncnn3c2)cc2[nH]nc(OC3CCC(N(C)C)CC3)c12 (single isomer, unassigned) [Example 180]", "human TLR7 (Homo sapiens, UniProt Q9NYK1)", 8.59),
    ("CCc1cc2c(C3CCC(NCC(=O)N(C)C)CC3)n[nH]c2cc1-c1cc(C)c2ncnn2c1 (centres unmarked) [Example 96]", "human TLR7 (Homo sapiens, UniProt Q9NYK1)", 8.52),
    ("Cc1cc2c(C3CCCNC3)n[nH]c2cc1-c1cc(C)c(=O)n(C)c1 (centres unmarked)", "human TLR7 (Homo sapiens, UniProt Q9NYK1)", 6.91),
    ("CCc1cc2c(C3CCC(NC4CC4)CC3)n[nH]c2cc1-c1cc(C)c2ncnn2c1 (single isomer, unassigned) [Example 98]", "human TLR7 (Homo sapiens, UniProt Q9NYK1)", 8.60),
    ("CCc1cc2c(C3CCN(CCC#N)CC3)n[nH]c2cc1-c1cc(C)c2ncnn2c1", "human TLR7 (Homo sapiens, UniProt Q9NYK1)", 8.14),
    ("Cc1cc(-c2cc3[nH]nc(C4CCC(N5CC(C)(O)C5)CC4)c3cc2C(C)C)cn2ncnc12 (centres unmarked) [Example 154]", "human TLR7 (Homo sapiens, UniProt Q9NYK1)", 9.30),
    ("Cc1cc(-c2cc3[nH]nc(N4CCN(C5CCOCC5)CC4)c3cc2C(C)C)cn2ncnc12", "human TLR7 (Homo sapiens, UniProt Q9NYK1)", 8.19),
    ("Cc1cc(-c2cc3[nH]nc(C4CCC(N5CC(CO)(CO)C5)CC4)c3cc2C(C)C)cn2ncnc12 (centres unmarked)", "human TLR7 (Homo sapiens, UniProt Q9NYK1)", 8.33),
    ("Cc1cc(-c2cc(C)c3ncnn3c2)cc2[nH]nc(C3CCCNC3)c12 (centres unmarked)", "human TLR7 (Homo sapiens, UniProt Q9NYK1)", 8.33),
    ("Cc1cc2c(C3CCNCC3)n[nH]c2cc1-c1cc(C)c2ncnn2c1C", "human TLR7 (Homo sapiens, UniProt Q9NYK1)", 7.35),
    ("Cc1cc2c(C3CCC(NCC(=O)N(C)C)CC3)n[nH]c2cc1-c1cc(C)c2ncnn2c1 (single isomer, unassigned) [Example 29]", "human TLR7 (Homo sapiens, UniProt Q9NYK1)", 7.41),
    ("Cc1cc2c(NCCN3CCCC3)n[nH]c2cc1-c1cc(C)c2ncnn2c1", "human TLR7 (Homo sapiens, UniProt Q9NYK1)", 7.07),
    ("Cc1cc(-c2cc3[nH]nc(C4CCC(N5CC(OC(C)C)C5)CC4)c3cc2C(C)C)cn2ncnc12 (single isomer, unassigned) [Example 161]", "human TLR7 (Homo sapiens, UniProt Q9NYK1)", 8.19),
    ("Cc1cc2cn[nH]c2cc1-c1cc(C)c2ncnn2c1", "human TLR7 (Homo sapiens, UniProt Q9NYK1)", 6.25),
    ("COc1cc(-c2cc3[nH]nc(C4CCC(N(C)C)CC4)c3cc2C(C)C)cn2ncnc12 (single isomer, unassigned) [Example 140]", "human TLR7 (Homo sapiens, UniProt Q9NYK1)", 9.70),
    ("Cc1cc(-c2cc(C)c3ncnn3c2)cc2[nH]nc(C3CCN(C)CC3)c12", "human TLR7 (Homo sapiens, UniProt Q9NYK1)", 7.99),
    ("Cc1cc(-c2cc3[nH]nc(C4CCC(N5CC(F)(F)C5)CC4)c3cc2C(C)C)cn2ncnc12 (single isomer, unassigned) [Example 134]", "human TLR7 (Homo sapiens, UniProt Q9NYK1)", 8.60),
    ("CCc1cc(-c2cc(C)c3ncnn3c2)cc2[nH]nc(OC3CCC(N(C)C)CC3)c12 (single isomer, unassigned) [Example 168]", "human TLR7 (Homo sapiens, UniProt Q9NYK1)", 8.72),
    ("Cc1cc(-c2cc3[nH]nc(C4CCC(N5CC(OC(C)C)C5)CC4)c3cc2C(C)C)cn2ncnc12 (single isomer, unassigned) [Example 162]", "human TLR7 (Homo sapiens, UniProt Q9NYK1)", 8.82),
    ("CCc1cc2c(C3CCN(CC(N)=O)CC3)n[nH]c2cc1-c1cc(C)c2ncnn2c1", "human TLR7 (Homo sapiens, UniProt Q9NYK1)", 8.57),
    ("Cc1cc(-c2cc3[nH]nc(C4CCC(N5CCC(C)(O)C5)CC4)c3cc2C(C)C)cn2ncnc12 (single isomer, unassigned) [Example 166]", "human TLR7 (Homo sapiens, UniProt Q9NYK1)", 8.38),
]

Data provenance is patent US12172995B2.
